Target: hERG versus MCH receptor (Homo sapiens, UniProt Q12809+Q969V1)
Assay: in vitro
Description: Selectivity ratio for MCH-mediated calcium release from IMR-32 cells over hERG binding
Attribute measured: selectivity ratio

>  <Smiles input>
Cn1c(=O)ccc2ccc(CN3CCC(NC(=O)c4cc(=O)c5ccc(F)cc5o4)CC3)cc21

>  <Assay result>
1030

$$$$
>  <Smiles input>
CCc1nc2ccc(CN3CCC(NC(=O)c4cc(=O)c5ccc(F)cc5o4)CC3)cc2o1

>  <Assay result>
2

$$$$
